Molecular target: T1, extracellular domain of cyno ILT3 (cynoILT3-ECD) (cynomolgus monkey)
T1 chain: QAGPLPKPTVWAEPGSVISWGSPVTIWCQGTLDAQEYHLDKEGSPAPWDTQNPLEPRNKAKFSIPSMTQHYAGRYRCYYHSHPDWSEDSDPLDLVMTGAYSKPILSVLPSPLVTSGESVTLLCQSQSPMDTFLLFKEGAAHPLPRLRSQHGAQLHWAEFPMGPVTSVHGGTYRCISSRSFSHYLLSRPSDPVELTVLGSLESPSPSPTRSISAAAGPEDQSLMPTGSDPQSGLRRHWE
Assay: SPR (Biacore), antibody captured via anti-Fc on CM5 chip, soluble ILT3-ECD injected
pKd values by entry
Conceptually, pKd converts a concentration in mol/L into minus its log10.

Observe how each entry below is paired with its result.
45G10 chimera (antibody, V domains shown, also called parental chimeric 45G10) VH: EVQLVESGGGLVKPGGSLKLSCAASGFTFSDYGMHWVRQAPEKGLEWVAYIFSGSSTIYYADTVKGRFTISRDNAKNTLFLQMTSLRSEDTAMYYCARADGRGAMDYWGQGTSVTVSS VL: DVQMTQTTSSLSASLGDRVTISCRASQDISKFLNWYQQKPDGTVTLLIYYTSRLHSGVPSRFSGSGSGTDYSLTISNLDQEDIATYFCQQGNTLPWTFGGGTKLEIK    7.43
Hz48A6 C0/C2 (antibody, V domains shown) VH: EVQLVESGGGLVQPGGSLRLSCAASGFTFSSYGMSWVRQAPGKGLEWVGTISSGGTYTFYPDSVKGRFTISRDNSKNTLYLQMNSLRAEDTAVYYCARRGWLLHYYAMDYWGQGTLVTVSS VL: DIQLTQSPSFLSASVGDRVTITCRPSESVDSFGNSFMHWFQQKPGKAPKLLIYLSSKLESGVPSRFSGSGSGTEFTLTISSLQPEDFATYYCQQHNEDPFTFGQGTKVEIK    6.75

Now look at this one.
QUERY: Requested field: pKd. Item: Hz45G10 B1/A4 (antibody, V domains shown) VH: EVQLVESGGGLVKPGGSLRLSCAASGFTFSDYGMHWVRQAPGKGLEWVSYIFSGSSTIYYADTVKGRFTISRDNAKNSLYLQMNSLRAEDTAVYYCARADGRGAMDYWGQGTLVTVSS VL: DIQMTQSPSSLSASVGDRVTITCRASQDISKFLNWYQQKPGKAPKLLIYYTSRLHSGVPSRFSGSGSGTDFTFTISSLQPEDIATYFCQQGNTLPWTFGGGTKLEIK
RESULT: 7.12
